target: HER2 INS YVMA (Homo sapiens, UniProt P04626, INS775YVMA); construct: purchased DPF; assay: Lance Kinase Activity Assay, HER2 INS YVMA (Her2 Exon 20 INSYVMA Lance); type: biochemical; settings: biochemical Lance assay
Sequence (P04626 with tags, fused parts or gaps INS775YVMA): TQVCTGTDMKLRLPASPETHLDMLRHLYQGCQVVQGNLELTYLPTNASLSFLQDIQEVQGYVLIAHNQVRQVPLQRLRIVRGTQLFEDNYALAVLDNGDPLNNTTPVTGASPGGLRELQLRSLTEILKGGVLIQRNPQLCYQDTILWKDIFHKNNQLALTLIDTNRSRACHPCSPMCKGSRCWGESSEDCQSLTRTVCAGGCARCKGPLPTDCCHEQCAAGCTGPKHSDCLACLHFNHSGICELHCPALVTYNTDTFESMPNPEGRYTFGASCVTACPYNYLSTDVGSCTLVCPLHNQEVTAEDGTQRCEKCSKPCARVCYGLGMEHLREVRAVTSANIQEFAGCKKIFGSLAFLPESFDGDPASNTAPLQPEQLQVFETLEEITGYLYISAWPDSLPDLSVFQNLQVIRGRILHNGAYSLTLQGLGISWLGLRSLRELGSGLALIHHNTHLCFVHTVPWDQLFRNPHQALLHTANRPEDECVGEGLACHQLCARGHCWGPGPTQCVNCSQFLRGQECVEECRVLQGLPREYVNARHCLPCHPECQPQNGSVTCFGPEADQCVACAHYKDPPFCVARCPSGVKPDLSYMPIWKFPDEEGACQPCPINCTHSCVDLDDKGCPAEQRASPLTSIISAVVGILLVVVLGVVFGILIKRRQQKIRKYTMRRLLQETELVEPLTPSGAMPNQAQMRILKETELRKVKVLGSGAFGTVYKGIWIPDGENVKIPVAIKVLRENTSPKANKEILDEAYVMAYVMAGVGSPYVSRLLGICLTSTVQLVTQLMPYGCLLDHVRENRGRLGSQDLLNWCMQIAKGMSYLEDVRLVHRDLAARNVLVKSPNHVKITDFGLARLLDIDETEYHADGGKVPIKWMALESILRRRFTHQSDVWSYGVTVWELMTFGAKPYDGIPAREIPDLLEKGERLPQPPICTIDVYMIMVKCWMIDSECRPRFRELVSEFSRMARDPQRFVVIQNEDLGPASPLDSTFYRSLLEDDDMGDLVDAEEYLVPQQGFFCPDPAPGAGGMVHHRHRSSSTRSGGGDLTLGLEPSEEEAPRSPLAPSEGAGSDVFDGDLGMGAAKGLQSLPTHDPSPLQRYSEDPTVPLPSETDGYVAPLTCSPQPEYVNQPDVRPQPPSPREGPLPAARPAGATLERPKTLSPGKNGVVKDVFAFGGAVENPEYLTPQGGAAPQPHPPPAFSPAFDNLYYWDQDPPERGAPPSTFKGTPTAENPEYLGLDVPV
observable: IC50

Known results for compounds:
compound: C=CC(=O)Nc1cc(-c2c(-c3ccc(N4CCN(C)CC4)cc3)[nH]c3ncc(C(=O)NCc4ccccc4)cc23)ccc1C [Example 118, 2,2,2-trifluoroacetate]
targetSystem: HER2 INS YVMA (Homo sapiens, UniProt P04626, INS775YVMA)
IC50: ≤ 100 nM
//
compound: C=CC(=O)Nc1cc(-c2c(-c3ccc(OCCCN4CCN(CC)CC4)cc3)[nH]c3nccc(Cl)c23)ccc1C
targetSystem: HER2 INS YVMA (Homo sapiens, UniProt P04626, INS775YVMA)
IC50: ≤ 100 nM
//
compound: C=CC(=O)Nc1cc(-c2c(-c3ccc(N4CCN(C)CC4)cc3)[nH]c3ncc(C(=O)OC(C)C)cc23)c(C)cc1C
targetSystem: HER2 INS YVMA (Homo sapiens, UniProt P04626, INS775YVMA)
IC50: 1000 to 10000 nM
//
compound: C=CC(=O)Nc1cc(-c2c(-c3ccc(N4CCN(C)CC4)cc3)[nH]c3ncc(OC(F)(F)F)cc23)ccc1C [Example 188, 2,2,2-trifluoroacetate]
targetSystem: HER2 INS YVMA (Homo sapiens, UniProt P04626, INS775YVMA)
IC50: ≤ 100 nM
//
compound: C=CC(=O)Nc1cc(-c2c(-c3cccc(CN4CCOCC4)c3)[nH]c3nccc(Cl)c23)ccc1C
targetSystem: HER2 INS YVMA (Homo sapiens, UniProt P04626, INS775YVMA)
IC50: 500 to 1000 nM

Now consider the entry below.
Exercise: Observed IC50 on HER2 INS YVMA (Homo sapiens, UniProt P04626, INS775YVMA) for C=CC(=O)Nc1cc(-c2c(-c3ccnc(N4CCOCC4)c3)[nH]c3ncc(C(=O)OC(C)C)cc23)ccc1C , please.
Key: 500 to 1000 nM

====

target: EGFR T790ML858R (Homo sapiens, UniProt P00533, L858R/T790M); assay: EGFR T790ML858R Lance assay
Sequence (P00533 25-1210 T790M/L858R): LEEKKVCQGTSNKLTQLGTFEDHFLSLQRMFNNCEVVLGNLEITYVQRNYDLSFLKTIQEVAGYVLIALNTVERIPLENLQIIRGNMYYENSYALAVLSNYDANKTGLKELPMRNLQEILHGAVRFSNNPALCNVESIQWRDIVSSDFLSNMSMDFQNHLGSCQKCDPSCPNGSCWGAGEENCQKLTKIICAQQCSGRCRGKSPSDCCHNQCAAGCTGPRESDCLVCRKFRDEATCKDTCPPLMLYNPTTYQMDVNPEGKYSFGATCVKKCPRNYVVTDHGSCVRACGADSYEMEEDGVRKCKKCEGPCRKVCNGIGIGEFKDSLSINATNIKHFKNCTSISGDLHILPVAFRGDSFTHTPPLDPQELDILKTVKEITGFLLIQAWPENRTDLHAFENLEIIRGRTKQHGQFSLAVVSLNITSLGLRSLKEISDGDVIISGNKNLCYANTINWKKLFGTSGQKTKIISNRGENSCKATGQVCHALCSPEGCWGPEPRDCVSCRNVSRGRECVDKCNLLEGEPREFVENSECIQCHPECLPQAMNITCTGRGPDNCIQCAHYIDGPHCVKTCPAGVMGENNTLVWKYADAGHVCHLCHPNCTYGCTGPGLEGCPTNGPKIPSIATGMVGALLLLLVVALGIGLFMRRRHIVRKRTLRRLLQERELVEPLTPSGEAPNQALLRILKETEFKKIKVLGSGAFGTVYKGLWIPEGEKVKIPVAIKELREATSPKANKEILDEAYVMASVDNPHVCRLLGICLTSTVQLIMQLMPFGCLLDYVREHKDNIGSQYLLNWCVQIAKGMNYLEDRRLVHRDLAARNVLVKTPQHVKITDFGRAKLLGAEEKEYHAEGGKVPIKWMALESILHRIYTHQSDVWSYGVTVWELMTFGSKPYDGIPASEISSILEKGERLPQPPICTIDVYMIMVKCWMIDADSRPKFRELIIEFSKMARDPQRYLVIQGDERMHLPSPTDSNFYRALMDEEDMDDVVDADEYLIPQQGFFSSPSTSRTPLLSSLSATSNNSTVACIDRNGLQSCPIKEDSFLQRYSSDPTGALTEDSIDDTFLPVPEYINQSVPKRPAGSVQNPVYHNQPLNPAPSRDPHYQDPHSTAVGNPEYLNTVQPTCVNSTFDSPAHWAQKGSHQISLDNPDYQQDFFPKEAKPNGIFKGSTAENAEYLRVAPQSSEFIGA
Catalogue of compounds with associated IC50

compound: C=CC(=O)Nc1cc(-c2c(-c3ccc(N4CCN(C)CC4)cc3)[nH]c3ncc(C(=O)NCc4cccc(NC(C)=O)c4)cc23)ccc1C
observable: IC50
reported: 100 to 500 nM

Exercise: Find the recorded IC50 belonging to C=CC(=O)Nc1cc(-c2c(-c3ccc(N4CCN(C)CC4)cc3)[nH]c3ncc(C(=O)OC4CCCCC4)cc23)ccc1C and report it.
Key: ≤ 100 nM

Exercise: # repeat for C=CC(=O)Nc1cc(-c2c(-c3ccc(CN4CCN(C)CC4)cc3)[nH]c3nccc(Cl)c23)ccc1C [Example 1, 2,2,2-trifluoroacetate]
Key: ≤ 100 nM

Exercise: Same again, this time with C=CC(=O)Nc1cc(-c2c(-c3ccc(N4CCN(C)CC4)cc3)[nH]c3ncc(CC(=O)OC4COC4)cc23)ccc1C
Key: ≤ 100 nM

Exercise: And the next one, C=CC(=O)Nc1cc(-c2c(-c3ccc(N4CCN(C)CC4)cc3)[nH]c3ncc(OC(F)(F)F)cc23)ccc1C [Example 188, 2,2,2-trifluoroacetate] ?
Key: ≤ 100 nM

Exercise: Follow-up item: C=CC(=O)Nc1cc(-c2c(-c3ccc(N4CCN(C)CC4)nc3)[nH]c3nccc(Cl)c23)ccc1C
Key: ≤ 100 nM
